# Lookup of reported ΔKdis (pH 6.0)/ΔKdis (pH 7.4) keyed by entry
Target: T1, VISTA-His ECD (Sino Biological 13482-H08H) (human, UniProt Q9H7M9 33-194)
T1 construct: Bought protein; also called VISTA-ECD; not shown: His tag
Test: BLI (Octet K2), ratio of the pH 6.0 fold change to the pH 7.4 fold change

{"binder": "Antibody No. 474.1 with VL Y32H, VH Y32H (antibody, V domains shown) VH: QVQLQESGPGLVKPSETLSLTCTVSGGSISSHYWSWIRQPPGKGLEWIGYIYYSGSTNYNPSLKSRVTISVDTSKSQFSLKLSSVTAADTAVYYCARDIPAFAFDIWGQGTMVIVSS VL: EIVLTQSPATLSLSPGERATLSCRASQSVSYHLAWYQQKPGQAPRLLIYDAFNRATGIPARFSGSGSGTDFTLTISSLEPEDFAVYYCQQRINWPLTFGGGTKVEIK", "ΔKdis (pH 6.0)/ΔKdis (pH 7.4)": 5.9}
{"binder": "Antibody No. 474.1 with VL Y31H, VH Y32H (antibody, V domains shown) VH: QVQLQESGPGLVKPSETLSLTCTVSGGSISSHYWSWIRQPPGKGLEWIGYIYYSGSTNYNPSLKSRVTISVDTSKSQFSLKLSSVTAADTAVYYCARDIPAFAFDIWGQGTMVIVSS VL: EIVLTQSPATLSLSPGERATLSCRASQSVSHYLAWYQQKPGQAPRLLIYDAFNRATGIPARFSGSGSGTDFTLTISSLEPEDFAVYYCQQRINWPLTFGGGTKVEIK", "ΔKdis (pH 6.0)/ΔKdis (pH 7.4)": 5.8}
{"binder": "Antibody No. 474.1 with VH Y32H, VH Y33H, VH Y52H (antibody, V domains shown) VH: QVQLQESGPGLVKPSETLSLTCTVSGGSISSHHWSWIRQPPGKGLEWIGYIHYSGSTNYNPSLKSRVTISVDTSKSQFSLKLSSVTAADTAVYYCARDIPAFAFDIWGQGTMVIVSS VL: EIVLTQSPATLSLSPGERATLSCRASQSVSYYLAWYQQKPGQAPRLLIYDAFNRATGIPARFSGSGSGTDFTLTISSLEPEDFAVYYCQQRINWPLTFGGGTKVEIK", "ΔKdis (pH 6.0)/ΔKdis (pH 7.4)": 5.2}
